assay_protocol: Solubility of the compound by high-throughput equilibrium solubility assay
Assay type: physicochemical
Where a SMILES comes first, the peptide text is derived from it. [ ]: non-standard residue; d: D form. NMeA = CN[C@@H](C)C(=O)O; dNMeA = CN[C@H](C)C(=O)O
measured_property: solubility thermodynamic (µM)

A selection of reference data follows.
{"columns": ["molecule", "solubility thermodynamic / µM"],
 "data": [
  ["CC(C)C[C@@H]1NC(=O)[C@H](C(C)C)N(C)C(=O)[C@H]2CCCN2C(=O)[C@H](CC(C)C)NC(=O)[C@@H](C)N(C)C(=O)[C@H](CC(C)C)NC(=O)[C@H](C(C)C)N(C)C(=O)[C@H](C)N(C)C(=O)[C@H](CC(C)C)NC(=O)[C@@H](C)N(C)C1=O", 220],
  ["CC(C)C[C@@H]1NC(=O)[C@H](C)N(C)C(=O)[C@H](CC(C)C)NC(=O)[C@H](C)N(C)C(=O)[C@@H](C)N(C)C(=O)[C@H](CC(C)C)NC(=O)[C@H](C)N(C)C(=O)[C@H](CC(C)C)NC(=O)[C@H](C)N(C)C(=O)[C@@H](C)N(C)C1=O (cyclo(L[NMeA]L[dNMeA][NMeA]L[NMeA]L[dNMeA][NMeA]))", 477],
  ["CC(C)C[C@@H]1NC(=O)[C@H]([C@@H](C)O)N(C)C(=O)[C@H]2CCCN2C(=O)[C@H](CC(C)C)NC(=O)[C@H](C)N(C)C(=O)[C@H](CC(C)C)NC(=O)[C@H](Cc2ccccc2)N(C)C(=O)[C@H]2CCCN2C(=O)[C@H](CC(C)C)NC(=O)[C@H](C)N(C)C1=O", 65],
  ["CC(C)C[C@@H]1NC(=O)[C@H](C)N(C)C(=O)[C@H]2CCCN2C(=O)[C@H](CC(C)C)NC(=O)[C@H](C)N(C)C(=O)[C@H](CC(C)C)NC(=O)[C@H](C)N(C)C(=O)[C@@H]2C[C@@H](O)CN2C(=O)[C@H](CC(C)C)NC(=O)[C@H](C)N(C)C1=O", 910]
]}

1 = CC(C)C[C@@H]1NC(=O)[C@H]([C@@H](C)O)N(C)C(=O)[C@H]2CCCN2C(=O)[C@H](CC(C)C)NC(=O)[C@H](C)N(C)C(=O)[C@H](CC(C)C)NC(=O)[C@H]([C@@H](C)O)N(C)C(=O)[C@H]2CCCN2C(=O)[C@H](CC(C)C)NC(=O)[C@H](C)N(C)C1=O
2 = CC(C)C[C@@H]1NC(=O)[C@H](C)N(C)C(=O)[C@H]2CCCN2C(=O)[C@H](CC(C)C)NC(=O)[C@H]([C@@H](C)O)N(C)C(=O)[C@H](CC(C)C)NC(=O)[C@H](C)N(C)C(=O)[C@H]2CCCN2C(=O)[C@H](CC(C)C)NC(=O)[C@H]([C@@H](C)O)N(C)C1=O
3 = CC(C)C[C@@H]1NC(=O)[C@H](Cc2ccccc2)N(C)C(=O)[C@H]2CCCN2C(=O)[C@H](CC(C)C)NC(=O)[C@H](C)N(C)C(=O)[C@H]([C@@H](C)O)NC(=O)[C@H](Cc2ccccc2)N(C)C(=O)[C@H]2CCCN2C(=O)[C@H](CC(C)C)NC(=O)[C@H](C)N(C)C1=O
// smallest solubility thermodynamic at index 0, largest at the end Sort the labels as requested; that list is your answer.
3, 2, 1
(3: 15 µM, 2: 445 µM, 1: 884 µM)

P = CC(C)C[C@@H]1NC(=O)[C@H](C)N(C)C(=O)[C@H](CC(C)C)NC(=O)[C@H]2CCCN2C(=O)[C@@H]2CCCN2C(=O)[C@H](CC(C)C)NC(=O)[C@H](C)N(C)C(=O)[C@H](CC(C)C)NC(=O)[C@H](C(C)C)N(C)C(=O)[C@@H](C)N(C)C1=O
Q = CC(C)C[C@@H]1NC(=O)[C@H](C)N(C)C(=O)[C@H]2CCCN2C(=O)[C@H](CC(C)C)NC(=O)[C@H](C)N(C)C(=O)[C@H](CC(C)C)NC(=O)[C@H](C)N(C)C(=O)[C@H]2CCCN2C(=O)[C@H](CC(C)C)NC(=O)[C@H](C)N(C)C1=O
Field: entry with larger solubility thermodynamic (options P / Q ). Write down the label attached to your selection.
Q
(Q: 794 µM, P: 92 µM)

Measured values drawn from ChEMBL document CHEMBL5233275 for this set.
